Target: full length human recombinant glucocorticoid receptor (Homo sapiens, UniProt P04150)
Construct: partially purified full length human recombinant glucocorticoid receptor; purchased Panvera/Invitrogen PV4302
Assay: Glucocorticoid Receptor Binding Assay (fluorescence polarization competitor assay, Fluormone GS Far Red tracer)
Below, each entry is listed with its recorded Ki.
Reply numerically in nM, unit not repeated.

Here's what some known entries look like.
CCn1cc([C@@](O)([C@@H](C)c2ccc(-c3ccc(C(=O)O)c(F)c3)cc2Cl)C(F)(F)F)ccc1=O (relative stereo) :: 68.2
CCOC(=O)c1cccc(-c2ccc([C@@H](C)[C@@](O)(c3ccnc(-c4cccc(C(=O)OCC)c4)c3)C(F)(F)F)c(Cl)c2)c1 (stereo in doubt) :: 207
C[C@H](c1cc(Oc2ccc(C(=O)O)cn2)ccc1Cl)[C@@](O)(c1ccnc(Cl)c1)C(F)(F)F (relative stereo) :: 207
C[C@H](c1ccc(Oc2ncc(C(=O)O)cc2Cl)cc1Cl)[C@@](O)(c1ccc2nccnc2c1)C(F)(F)F (relative stereo) :: 14.3
Cc1cc(C(O)(C(C)c2ccc(-c3cccc(C(=O)O)c3)cc2Cl)C(F)(F)F)ccn1 (stereo not drawn) :: 4.9
C[C@H](c1ccc(OCc2ccc(C(=O)O)cc2)cc1Cl)[C@@](O)(c1ccnc(Cl)c1)C(F)(F)F (stereo in doubt) :: 2.9
Cc1cc([C@@](O)([C@@H](C)c2ccc(Oc3ccc(C(=O)O)c(F)c3)cc2Cl)C(F)(F)F)cn(C)c1=O [Example 248] :: 0.5
C[C@H](c1ccc(C(=O)Nc2cc(C(=O)O)ccn2)cc1Cl)[C@@](O)(c1ccnc(Cl)c1)C(F)(F)F (stereo in doubt) :: 171
COC(=O)c1cnc(OCc2ccc([C@@H](C)[C@@](O)(c3ccnc(Cl)c3)C(F)(F)F)c(Cl)c2)cn1 (stereo in doubt) :: 9.7
C[C@H](c1ccc(COc2cnc(C(=O)O)cn2)cc1Cl)[C@@](O)(c1ccnc(Cl)c1)C(F)(F)F (stereo in doubt) :: 18.8

q: // fetch Ki given entry COC(=O)c1ccnc(NC(=O)c2ccc([C@@H](C)[C@@](O)(c3ccnc(Cl)c3)C(F)(F)F)c(Cl)c2)c1 (stereo in doubt)
a: 94.7

q: Tell us which Ki value is on record for C[C@@H](c1ccc(-c2ccc(C(=O)O)c(F)c2)cc1Cl)[C@](O)(c1cccc2cnccc12)C(F)(F)F (stereo in doubt)
a: 9.5

* * *

Target: full length human recombinant glucocorticoid receptor (Homo sapiens)
Construct: partially purified full length human recombinant glucocorticoid receptor; purchased Panvera/Invitrogen PV4302
Assay: Glucocorticoid Receptor Binding Assay (fluorescence polarization competitor assay, Fluormone GS Far Red tracer)
endpoint-name: pKi
The meaning of pKi here: minus log10 of the concentration in molar units.

COC(=O)c1cnc(Oc2ccc([C@H](C)[C@](O)(c3cc(C)c(=O)n(C)c3)C(F)(F)F)c(Cl)c2)nc1C(F)(F)F (stereo in doubt) [Example 242] :: 8.57
C[C@H](c1ccc(Oc2ccc(CC(=O)O)cc2)cc1Cl)[C@@](O)(c1ccc(=O)n(C)c1)C(F)(F)F (stereo in doubt) [Example 158] :: 8.15

Now take the following compound into account.
q: Read off the recorded pKi for CCOC(=O)Cc1ccc(CNC(=O)c2ccc([C@@H](C)[C@@](O)(c3ccnc(Cl)c3)C(F)(F)F)c(Cl)c2)cc1 (stereo in doubt) [Example 42]
a: 6.55

* * *

Below: a set of entries, each annotated with reported pKi.
Biological target: full length human recombinant glucocorticoid receptor (Homo sapiens, UniProt P04150)
Construct: partially purified full length human recombinant glucocorticoid receptor; purchased Panvera/Invitrogen PV4302
Assay: Glucocorticoid Receptor Binding Assay (fluorescence polarization competitor assay, Fluormone GS Far Red tracer)
Worth noting: pKi values are minus log10 of concentrations stated in mol/L.

COC(=O)c1ccc(OCc2ccc([C@@H](C)[C@@](O)(c3ccnc(Cl)c3)C(F)(F)F)c(Cl)c2)nc1 (stereo in doubt) :: 8.07
C[C@H](c1ccc(COc2ccc(C(=O)O)cn2)cc1Cl)[C@@](O)(c1ccnc(Cl)c1)C(F)(F)F (relative stereo) :: 8.26
C[C@H](c1ccc(Oc2ccc(C(=O)O)c(F)c2)cc1Cl)[C@@](O)(c1ccc(=O)n(C)c1)C(F)(F)F (stereo in doubt) :: 7.34

q: Using known records, supply pKi for CCn1cc([C@@](O)([C@@H](C)c2ccc(-c3ccc(F)c(C(=O)O)c3)cc2Cl)C(F)(F)F)ccc1=O (stereo in doubt)
a: 7.98

q: Assign pKi to the following record: Cc1cnc([C@](O)([C@H](C)c2ccc(OCc3ccc(C(=O)O)cc3Cl)cc2Cl)C(F)(F)F)cn1 (stereo in doubt)
a: 8.55

q: Quickly give me recorded pKi for C[C@H](c1ccc(-c2ccc(F)c(C(=O)O)c2)cc1Cl)[C@@](O)(c1cnc2ccccc2c1)C(F)(F)F (relative stereo)
a: 7.61

q: Read the entry CCOC(=O)c1cc(-c2ccc([C@H](C)[C@](O)(c3ccc(OC)nc3)C(F)(F)F)c(Cl)c2)ccc1Cl (stereo in doubt) and write its reported pKi.
a: 7.42

q: Specify reported pKi for the molecule shown: COC(=O)c1cnc(Oc2ccc([C@H](C)[C@](O)(c3cc(C)c(=O)n(C)c3)C(F)(F)F)c(Cl)c2)cc1C(F)(F)F (relative stereo)
a: 8.89

* * *

Molecular target: full length human recombinant glucocorticoid receptor (Homo sapiens)
Construct: partially purified full length human recombinant glucocorticoid receptor; purchased Panvera/Invitrogen PV4302
Sequence (P04150 1-777): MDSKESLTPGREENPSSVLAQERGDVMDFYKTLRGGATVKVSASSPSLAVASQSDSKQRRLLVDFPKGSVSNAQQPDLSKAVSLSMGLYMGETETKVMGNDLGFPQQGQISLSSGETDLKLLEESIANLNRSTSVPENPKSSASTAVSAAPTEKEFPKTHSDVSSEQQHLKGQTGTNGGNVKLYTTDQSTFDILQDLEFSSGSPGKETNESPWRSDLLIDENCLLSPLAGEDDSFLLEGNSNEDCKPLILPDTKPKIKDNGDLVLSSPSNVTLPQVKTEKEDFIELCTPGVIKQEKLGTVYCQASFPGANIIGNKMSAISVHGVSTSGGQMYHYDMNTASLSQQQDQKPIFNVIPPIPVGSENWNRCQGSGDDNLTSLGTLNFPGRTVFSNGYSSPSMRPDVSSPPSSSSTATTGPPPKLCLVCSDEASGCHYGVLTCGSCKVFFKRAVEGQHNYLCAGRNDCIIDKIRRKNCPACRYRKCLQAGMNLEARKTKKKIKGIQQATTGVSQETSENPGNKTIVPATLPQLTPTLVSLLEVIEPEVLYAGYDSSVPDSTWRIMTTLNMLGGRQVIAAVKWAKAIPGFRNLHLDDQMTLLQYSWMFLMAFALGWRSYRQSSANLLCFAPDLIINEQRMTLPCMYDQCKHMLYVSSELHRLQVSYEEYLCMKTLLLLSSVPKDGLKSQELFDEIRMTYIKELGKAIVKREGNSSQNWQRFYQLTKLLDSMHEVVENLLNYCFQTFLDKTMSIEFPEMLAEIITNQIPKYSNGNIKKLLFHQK
Test: Glucocorticoid Receptor Binding Assay (fluorescence polarization competitor assay, Fluormone GS Far Red tracer)
endpoint-name: pKi
The value called pKi is obtained by taking minus log10 of the concentration in mol/L.

These recorded examples may help you get a feel for the data.
Cc1cc([C@](O)([C@H](C)c2ccc(Oc3ccc(C(=O)O)c(Cl)c3)cc2Cl)C(F)(F)F)sc1C#N :: 8.74
CCOC(=O)c1cc(-c2ccc([C@H](C)[C@](O)(c3ccc(=O)n(CC)c3)C(F)(F)F)c(Cl)c2)ccc1F (relative stereo) :: 8.12
C[C@@H](c1ccc(Oc2ccc(C(=O)O)cc2)cc1Cl)[C@](O)(c1ccc(=O)[nH]c1)C(F)(F)F (relative stereo) :: 7.12

# ---- query compound ----
q: Return the recorded pKi value; entry: CC(c1ccc(Oc2cnc(C(=O)O)cn2)cc1Cl)C(O)(c1ccnc(Cl)c1)C(F)(F)F (stereo not shown)
a: 7.01

* * *

Biological target: full length human recombinant glucocorticoid receptor (Homo sapiens, UniProt P04150)
Construct: partially purified full length human recombinant glucocorticoid receptor; purchased Panvera/Invitrogen PV4302
Sequence (P04150 1-777): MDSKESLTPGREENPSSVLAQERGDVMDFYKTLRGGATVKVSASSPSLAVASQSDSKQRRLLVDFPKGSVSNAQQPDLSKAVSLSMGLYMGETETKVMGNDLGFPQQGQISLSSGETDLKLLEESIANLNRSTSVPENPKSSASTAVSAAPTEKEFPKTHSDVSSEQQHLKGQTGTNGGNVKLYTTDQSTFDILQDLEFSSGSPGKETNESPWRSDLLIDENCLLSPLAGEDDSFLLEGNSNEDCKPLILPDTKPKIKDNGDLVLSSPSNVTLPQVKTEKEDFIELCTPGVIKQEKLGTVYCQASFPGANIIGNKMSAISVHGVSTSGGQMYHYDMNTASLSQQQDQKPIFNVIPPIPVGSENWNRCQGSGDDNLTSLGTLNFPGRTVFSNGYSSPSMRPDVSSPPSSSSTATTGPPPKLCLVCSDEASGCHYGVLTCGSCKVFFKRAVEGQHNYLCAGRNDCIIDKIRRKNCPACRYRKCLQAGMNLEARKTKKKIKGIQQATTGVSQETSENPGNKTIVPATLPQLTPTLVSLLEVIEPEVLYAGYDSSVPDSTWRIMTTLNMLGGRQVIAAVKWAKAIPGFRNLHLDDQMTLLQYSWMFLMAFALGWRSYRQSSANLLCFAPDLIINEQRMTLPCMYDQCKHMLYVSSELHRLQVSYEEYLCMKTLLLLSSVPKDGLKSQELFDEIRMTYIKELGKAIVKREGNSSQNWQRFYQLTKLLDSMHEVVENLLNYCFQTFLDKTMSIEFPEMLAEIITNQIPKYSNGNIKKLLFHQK
Experiment: Glucocorticoid Receptor Binding Assay (fluorescence polarization competitor assay, Fluormone GS Far Red tracer)
endpoint-name: Ki (nM)
Response body: numeric value in nM, unit text excluded.

Cc1cc([C@](O)([C@H](C)c2ccc(-c3ccc(C(=O)O)c(F)c3)cc2Cl)C(F)(F)F)sc1C#N (relative stereo) :: 11.2
COC(=O)c1ccc(Oc2ccc([C@@H](C)[C@@](O)(c3ccc(=O)n(C)c3)C(F)(F)F)c(Cl)c2)cc1Cl (stereo in doubt) :: 4.9

q: State, in one line, measured Ki of COC(=O)c1ccc(-c2ccc([C@H](C)[C@](O)(c3ccc(OC)nc3)C(F)(F)F)c(Cl)c2)cc1F (stereo in doubt)
a: 93.5
